Recorded values, source PubChem BioAssay (NCATS).

target: Retinaldehyde dehydrogenase 3 (Homo sapiens) (UniProt P47895); assay: qHTS for Inhibitors of the Aldehyde Dehydrogenase Family (ALDH1A3) Primary screen (AID 2061315); details: ALDH inhibition qHTS; series mostly up to 56 µM; note: potency is the fitted concentration of half-maximal effect
Inconclusive results are not listed. Calls of active or inactive are those of the source. Calls come from the whole dose curve; as a rule, active = well fitted inhibition curve with a large enough effect; inconclusive = small, poorly fitted or top-dose-only effect; inactive = no such curve, though single readings can be large or run the other way.
experimentalReadout: Potency

Below, 6 molecules whose answers are already recorded.
response.value for O=C(O)c1cccc(-c2noc(-c3cccc(Cl)c3)n2)c1 (field: Potency) = 0.562 µM (active)

response.value for CCN(CC)CCCCCCNc1cc(OC)cc2c(C)ccnc12 (field: Potency) = 2.51 µM (active)

response.value for CNC(=O)Nc1ccc(OC)c(NC(=O)NC(=O)c2cc(F)c(F)cc2Cl)c1 (field: Potency) = 28.2 µM (active)

response.value for OCC1OC(Oc2cc(O)cc(/C=C/c3ccc(O)cc3)c2)C(O)C(O)C1O (centres undefined) (field: Potency) = 3.55 µM (active)

response.value for COc1cc(CC2COC(c3ccc(OC4OC(CO)C(O)C(O)C4O)c(OC)c3)C2CO)ccc1O (centres undefined) (field: Potency) = 8.91 µM (active)

response.value for CC1=C(C(=O)OC2CCCCC2)C(c2ccc([N+](=O)[O-])cc2)C2=C(CC(C)(C)CC2=O)N1 (centres undefined) (field: Potency) = 7.08 µM (active)

Continuing:
response.value for CC(=O)CC1CCC(C(C)C(=O)OCC(O)CO)O1 (centres undefined) (field: Potency) = 15.8 µM (active)

response.value for O=C(O)c1cnn(-c2nc3cc(OC(F)(F)F)c(Cl)cc3[nH]2)c1 (field: Potency) = 10 µM (active)

response.value for COc1ccc(C2COc3cc(O)ccc3C2)c(O)c1 (centres undefined) (field: Potency) = 25.1 µM (active)

response.value for CC(C)(Oc1ccc(-c2nc3cc(Cl)ccc3s2)cc1)C(=O)O (field: Potency) = 11.2 µM (active)

response.value for O=C(NCC(=O)N1CCCC1)Nc1ccc2ccccc2c1 (field: Potency) = 2.82 µM (active)

response.value for O=C(Nc1ncc([N+](=O)[O-])s1)c1ccccc1O (field: Potency) = 2 µM (active)

response.value for C=CC(=O)N1CC(N2CCN(C(=O)CNc3cc(C4CC4)c(Cl)cc3O)CC2)C1 (field: Potency) = 2.51 µM (active)
